Tested on: T. vaginalis
run description: Trichomonas resorufin assay
Assay type: cell-based
experimental setup: Trichomonas vaginalis, read-out: IC50 T. vaginalis
pIC50: −log10 of the molar value.
measured property: pIC50

Consider the reported pIC50 for these compounds:
Cn1cc(NC(=O)c2ccc(/C=C/c3cnc4ccccc4c3)cc2)cc1C(=O)Nc1cc(C(=O)N2CCCCC2)n(C)c1    4.30 to 5.30
CCNC(=N)CCNC(=O)c1cc(NC(=O)c2cc(NC(=O)c3ccc(/C=C/c4cccc(OC)c4)cc3)cn2C)cn1C    5.30 to 6.00
Cn1cc(NC(=O)c2cc(NC(=O)c3ccc(/C=C/c4cnc5ccccc5c4)cc3)cn2C)cc1C(=O)NCCC(=N)NCCC1CCOCC1    4.30 to 5.30

Kindly review the next compound as well.
Ask | Request body: readout pIC50, system T. vaginalis, query CCCCC[N+](C)(C)CCNC(=O)c1cc(NC(=O)c2cc(NC(=O)c3ccc(/C=C/c4cnc5ccccc5c4)cc3)cn2C)cn1C . Return the value.
Reply | 5.30 to 6.00

----------
Tested on: Staphylococcus aureus (ATCC 43300)
run description: Antibacterial MIC, broth microdilution (CLSI)
Format: cell-based
experimental setup: SI, IC50 (μM)/MIC80 (μM); HEK293 cytotoxicity; Alkyl Amidines and NH Pyrroles
measured property: S. aureus Selectivity Indices, Group

N=C(N)CCNC(=O)c1cc(NC(=O)c2cc(NC(=O)c3ccc(/C=C/c4cnc5ccccc5c4)cc3)c[nH]2)c[nH]1 [IIIa6]    D (D: SI > 10)
Cn1cc(NC(=O)c2cc(NC(=O)c3ccc(/C=C/c4cnc5ccccc5c4)cc3)c[nH]2)cc1C(=O)NCCC(=N)N [IIIa4]    D (D: SI > 10)
CCCCNC(=N)CCNC(=O)c1cc(NC(=O)c2cc(NC(=O)c3ccc(/C=C/c4cnc5ccccc5c4)cc3)cn2C)cn1C [Ia34]    D (D: SI > 10)

----------
Tested on: Staphylococcus aureus (ATCC 43300)
run description: Antibacterial MIC, broth microdilution (CLSI)
Assay type: cell-based
experimental setup: Staphylococcus aureus, ATCC43300; read-out: MIC80 S. aureus
measured property: MIC80

Consider the reported MIC80 for these compounds:
[H]/N=C(\CCNC(=O)c1cc(NC(=O)c2cc(NC(=O)c3ccc(C=Cc4ccc(N(C)C)cc4)nc3)cn2C)cn1C)NCCc1ccccc1    < 5 µM
CC(C)NC(=O)c1cc(NC(=O)c2cc(NC(=O)c3ccc(/C=C/c4cnc5ccccc5c4)cc3)cn2C)cn1C    < 5 µM
[H]/N=C(\CCNC(=O)c1cc(NC(=O)c2cc(NC(=O)c3ccc(C=Cc4ccc(N(C)C)cc4)nc3)cn2C)cn1C)NCC    5 to 25 µM
[H]/N=C(\CCNC(=O)c1cc(NC(=O)c2cc(NC(=O)c3ccc(C=Cc4ccc5nonc5c4)cc3)cn2C)cn1C)NOC    5 to 25 µM
O=C(Nc1c[nH]c(C(=O)Nc2c[nH]c(C(=O)NCCN3CCOCC3)c2)c1)c1ccc(/C=C/c2cnc3ccccc3c2)cc1    < 5 µM
CCCC[N+](C)(C)CCNC(=O)c1cc(NC(=O)c2cc(NC(=O)c3ccc(/C=C/c4cnc5ccccc5c4)cc3)cn2C)cn1C    < 5 µM

Ask | // returns reported MIC80 for input COc1cccc(/C=C/c2ccc(C(=O)Nc3cc(C(=O)Nc4cc(C(=O)NCCC(=N)NC(C)C)n(C)c4)n(C)c3)cc2)c1
Reply | 5 to 25 µM

Ask | // returns reported MIC80 for input COc1ccc(/C=C/c2ccc(C(=O)Nc3cc(C(=O)Nc4cc(C(=O)NCCC(=N)NC(C)C)n(C)c4)n(C)c3)cc2)cc1
Reply | 5 to 25 µM

Ask | // returns reported MIC80 for input C/N=C(/CCNC(=O)c1cc(NC(=O)c2cc(NC(=O)c3ccc(/C=C/c4nc5ccccc5s4)cc3)cn2C)cn1C)NC
Reply | 5 to 25 µM

Ask | // returns reported MIC80 for input CC[N+](C)(C)CCCNC(=O)c1cc(NC(=O)c2cc(NC(=O)c3ccc(/C=C/c4cccc(C(F)(F)F)c4)nc3)cn2C)cn1C
Reply | 25 to 100 µM

Ask | // returns reported MIC80 for input CCNC(=O)c1cc(NC(=O)c2cc(NC(=O)c3ccc(/C=C/c4cnc5ccccc5c4)cc3)cn2C)cn1C
Reply | < 5 µM

Ask | // returns reported MIC80 for input CC/N=C(/CCNC(=O)c1cc(NC(=O)c2cc(NC(=O)c3ccc(/C=C/c4ccc(N(C)C)cc4)nc3)cn2C)cn1C)NCC
Reply | 25 to 100 µM
